Tested on: T-47D breast
Assay: NCI-60 one-dose screen, 48 h (100 = growth as untreated, 0 = no growth, -100 = all killed)
Conditions: 10 µM unless noted
The panel holds about 83,000 compounds, 20% with a hit somewhere; the sample as a whole holds those more often.
Rule for this label: yes means growth is less than 30%; no means growth is at least 30%.

>>> category_label("COc1cc(C2C(C(=O)OCc3ccccc3)=C(C)Nc3nc4ccccc4n32)cc(OC)c1OC (configuration not stated)")
"no"
>>> category_label("CN1C(=O)C2(C(C#N)=C(c3ccc(Cl)cc3)Nc3c2c(-c2ccccc2)nn3-c2ccccc2)c2ccccc21 (configuration not stated)")
"no"
>>> category_label("CCCCCCCOc1ccc(S(=O)(=O)Nc2ccc(C)c(F)c2C(=O)O)cc1")
"no"
>>> category_label("O=C1Nc2cc(-c3ccc(NS(=O)(=O)c4ccc(C(F)(F)F)cc4)cc3)ccc2/C1=C/c1ccc[nH]1")
"yes"
>>> category_label("Cn1cc(-c2cc3nc(-c4cn(C)c5ncccc45)cc(N)n3n2)c2cc(F)ccc21")
"no"
>>> category_label("N#Cc1c(NC(=O)N2CCOCC2)n(-c2ccc(OC(F)(F)F)cc2)c2cc(F)ccc12")
"no"

[ask] Item CCCn1c(NC(=O)c2cccc(C(N)=O)c2)nc2cc(CN3CCCCC3)ccc21 : growth beneath 30%, strictly?
[reply] no

[ask] What do we get for O=C(CSc1nc2c(c(=O)[nH]1)CCCC2)Nc1ccccc1C(=O)O ?
[reply] no

[ask] What do you have for Clc1ccc(CNc2nc(SCCN3CCOCC3)nc3c2cnn3CC(Cl)c2ccc(Br)cc2)cc1 (configuration not stated) ?
[reply] yes

[ask] Ok, now O=C1NC(=NC23CC4CC(CC(C4)C2)C3)N/C1=C\c1ccc2ncccc2c1
[reply] yes

[ask] Could you do the same for O=C1N/C(=N\c2nccs2)S/C1=C\c1ccc([N+](=O)[O-])cc1 , please?
[reply] yes

[ask] Cool, now COC(=O)c1cc(C(C)=O)n2c3ccccc3c3ccccc3c12
[reply] no

[ask] What do you get for Cc1cc(C)c2[nH]c(=O)c(C(c3nnnn3Cc3ccc4c(c3)OCO4)N3CCN(C)CC3)cc2c1 (configuration not stated) ?
[reply] no

[ask] Would you kindly repeat that for COc1c2c(cc3c1C(CCc1ccccc1)N(C)CC3)OCO2 (configuration not stated) ?
[reply] yes

[ask] Next compound: COc1ccc(S(=O)(=O)Nc2ccc(-c3ccc4c(c3)NC(=O)/C4=C\c3ccc[nH]3)cc2)cc1OC
[reply] yes

[ask] Note, next up: COc1ccc(NC(=O)NN2C(=O)c3ccccc3N(C)C2c2ccc(OC)cc2)cc1 (configuration not stated)
[reply] no

[ask] Further, for COc1cc2cc(C(=O)N3C[C@@H](CCl)c4c3cc(OC(=O)N(CCC(=O)N3CCN(C)CC3)C3CCCCC3)c3ccccc43)[nH]c2c(OC)c1OC ?
[reply] yes

[ask] # repeat for O=C(N=Nc1c(O)[nH]c2ccc(Br)cc12)c1ccc2nc(-c3ccc(Cl)cc3)[nH]c2c1
[reply] yes

[ask] Now give it for COc1ccc(-c2cc(C)nc3[nH]c(=O)sc23)cc1 too.
[reply] yes

[ask] Next up: COc1ccc(-n2c(NC(=O)N3CCN(C)CC3)c(C#N)c3ccccc32)cc1
[reply] no

[ask] Next up: N#CC1=C(c2ccco2)Nc2c(c(-c3ccccc3)nn2-c2ccccc2)C12C(=O)Nc1ccc(Br)cc12 (configuration not stated)
[reply] no

[ask] // next record N#Cc1cc(-c2ccnc(Nc3ccc(N4CCN(C5COC5)CC4)cc3)n2)ccc1N1CCCC1
[reply] no

[ask] Lookup CCCCCCCCCCCCCCCCCC(=O)Nc1ccc(OC)cc1
[reply] no

[ask] Request: C=CCSc1nnc(-c2ccc(-c3nc4ccccc4[nH]3)cc2)o1
[reply] yes

[ask] Same again, this time with COc1ccc(-c2nc3ccc(-c4nnc(SCC(=O)Nc5ccc(/C(C)=N\O)cc5)o4)cc3[nH]2)cc1
[reply] no

[ask] Check O=C(N/N=C/c1ccc(-c2cccc([N+](=O)[O-])c2)s1)c1[nH]c2ccc(Br)cc2c1-c1ccccc1 too.
[reply] no
